Values were extracted from patent US6475746B1.

Biological target: Cloned Human 5-HT1D-1 (Homo sapiens, UniProt P28221)
Sequence (P28221 whole entry): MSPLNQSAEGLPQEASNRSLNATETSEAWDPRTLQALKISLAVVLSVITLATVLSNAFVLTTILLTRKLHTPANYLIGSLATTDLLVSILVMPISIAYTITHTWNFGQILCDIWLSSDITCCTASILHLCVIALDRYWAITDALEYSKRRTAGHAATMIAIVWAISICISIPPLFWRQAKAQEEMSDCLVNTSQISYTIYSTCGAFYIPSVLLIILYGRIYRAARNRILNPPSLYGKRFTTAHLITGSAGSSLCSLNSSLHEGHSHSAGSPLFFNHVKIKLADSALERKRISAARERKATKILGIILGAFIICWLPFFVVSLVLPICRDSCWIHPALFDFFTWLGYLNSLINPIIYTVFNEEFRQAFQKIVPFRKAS
Assay: [3H]5-HT binding to cloned human 5-HT1D-1 (gene 8-30-84) in transfected cell membranes
Let's look at some molecules and their measured pKi.
Just the number, please; pKi means minus log10 of the concentration in mol/L.

Short answer for O=C(c1ccc(F)cc1)C1CCN(CCn2c(=O)[nH]c3ccccc3c2=O)CC1 [Ketanserin] : pKi was 7.14

More entries:
Short answer for COC(=O)[C@H]1[C@H]2C[C@H]3c4[nH]c5ccccc5c4CCN3C[C@H]2CC[C@@H]1O [Rauwolscine] : pKi was 7.80

Short answer for CN1CCc2cc(Cl)c(O)cc2[C@@H](c2ccccc2)C1 [SCH-23390] : pKi was 6.17

Short answer for Cc1ccc(N(CC2=NCCN2)c2cccc(O)c2)cc1 [Phentolamine] : pKi was 6.11

Short answer for CC[C@@H](CO)NC(=O)[C@@H]1C=C2c3cccc4[nH]cc(c34)C[C@H]2N(C)C1 [Methylergonovine] : pKi was 9.07

---

Target: Cloned Human 5-HT1D-1 (Homo sapiens)
Test: [3H]5-HT binding to cloned human 5-HT1D-1 (gene 8-30-84) in transfected cell membranes
Settings: read-out: Estimated equilibrium dissociation constants (Ki values); [3H]5-HT displacement; membranes of LM (tk−) cells stably transfected; Cheng-Prusoff
We label by threshold. Values of Ki strictly beneath 10 nM are YES. Values of 10 nM and up are NO.

q: Item Clc1cccc(N2CCNCC2)c1 [mCPP] : Ki beneath 10 nM, strictly?
a: NO

q: Item COC(=O)[C@@H]1[C@H]2C[C@H]3c4[nH]c5ccccc5c4CCN3C[C@@H]2CC[C@@H]1O [Yohimbine] : Ki beneath 10 nM, strictly?
a: NO

q: Item CCCN(CCC)CCc1c[nH]c2ccc(C(N)=O)cc12 [Dipropyl-5-CT, dipropyl-5-carboxyamidotryptamine] : Ki beneath 10 nM, strictly?
a: NO

q: Item CN1C[C@H](CO)C=C2c3cccc4[nH]cc(c34)C[C@H]21 [Lysergol] : Ki beneath 10 nM, strictly?
a: YES

q: Item NCCc1c[nH]c2ccc(OCc3ccccc3)cc12 [5-Benzoxyltryptamine] : Ki beneath 10 nM, strictly?
a: YES

q: Item CC[C@@H](CO)NC(=O)[C@@H]1C=C2c3cccc4c3c(cn4C)C[C@H]2N(C)C1 [Methysergide] : Ki beneath 10 nM, strictly?
a: YES

q: Item Nc1ccc(CCN2CCN(c3cccc(C(F)(F)F)c3)CC2)cc1 [PAPP] : Ki beneath 10 nM, strictly?
a: YES

q: Item CSc1ccc2c(c1)C(N1CCN(C)CC1)Cc1ccccc1S2 (stereo not drawn) [Methiothepin] : Ki beneath 10 nM, strictly?
a: NO

More entries:
q: Item O=C(CCCN1CCC2(CC1)C(=O)NCN2c1ccccc1)c1ccc(F)cc1 [Spiperone] : Ki beneath 10 nM, strictly?
a: NO

q: Item Cc1[nH]c2ccc(O)cc2c1CCN [2-methyl-5-HT] : Ki beneath 10 nM, strictly?
a: NO

q: Item c1ccc2c(N3CCNCC3)cccc2c1 [1-Napthylpiperazine] : Ki beneath 10 nM, strictly?
a: YES

q: Item COc1cc(CC(C)N)c(OC)cc1I (stereo not drawn) [DOI] : Ki beneath 10 nM, strictly?
a: NO

---

Molecular target: Cloned Human 5-HT1D-2 (Homo sapiens)
Sequence (P28222 whole entry): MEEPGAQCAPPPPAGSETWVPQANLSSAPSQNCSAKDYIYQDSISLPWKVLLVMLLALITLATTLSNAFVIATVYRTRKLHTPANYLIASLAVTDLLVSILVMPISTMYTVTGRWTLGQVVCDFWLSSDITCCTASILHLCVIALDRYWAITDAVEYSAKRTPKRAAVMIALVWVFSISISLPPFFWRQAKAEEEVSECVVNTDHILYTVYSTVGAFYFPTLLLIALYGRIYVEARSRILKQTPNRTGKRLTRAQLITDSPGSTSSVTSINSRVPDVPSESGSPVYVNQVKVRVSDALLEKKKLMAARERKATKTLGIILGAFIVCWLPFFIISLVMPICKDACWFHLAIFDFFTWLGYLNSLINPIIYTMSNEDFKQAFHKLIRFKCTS
Experiment: [3H]5-HT binding to cloned human 5-HT1D-2 (gene 11) in transfected cell membranes
PROPERTY_LABEL: Ki

Field Ki (system: Cloned Human 5-HT1D-2 (Homo sapiens)) for entry COc1ccccc1N1CCN(CCCCN2C(=O)c3ccccc3C2=O)CC1 [NAN-190] = 0.652 µM

Field Ki (system: Cloned Human 5-HT1D-2 (Homo sapiens)) for entry CC[C@@H](CO)NC(=O)[C@@H]1C=C2c3cccc4[nH]cc(c34)C[C@H]2N(C)C1 [Methylergonovine] = 0.0029 µM

Field Ki (system: Cloned Human 5-HT1D-2 (Homo sapiens)) for entry CN1C[C@H](CNC(=O)OCc2ccccc2)C[C@@H]2c3cccc4c3c(cn4C)C[C@H]21 [Metergoline] = 0.018 µM

Field Ki (system: Cloned Human 5-HT1D-2 (Homo sapiens)) for entry O=C(CCCN1CCC2(CC1)C(=O)NCN2c1ccccc1)c1ccc(F)cc1 [Spiperone] = > 10 µM

Field Ki (system: Cloned Human 5-HT1D-2 (Homo sapiens)) for entry Cc1ccc(N(CC2=NCCN2)c2cccc(O)c2)cc1 [Phentolamine] = 2.15 µM

More entries:
Field Ki (system: Cloned Human 5-HT1D-2 (Homo sapiens)) for entry COc1cc(N)c(Cl)cc1C(=O)NC1CN2CCC1CC2 (stereo not shown) [Zacopride] = > 10 µM

Field Ki (system: Cloned Human 5-HT1D-2 (Homo sapiens)) for entry CN1CCc2cc(Cl)c(O)cc2[C@@H](c2ccccc2)C1 [SCH-23390] = 1.21 µM

Field Ki (system: Cloned Human 5-HT1D-2 (Homo sapiens)) for entry Cc1nc2sccn2c(=O)c1CCN1CCC(=C(c2ccc(F)cc2)c2ccc(F)cc2)CC1 [Ritanserin] = 1.2 µM

Field Ki (system: Cloned Human 5-HT1D-2 (Homo sapiens)) for entry CC(C)NCC(O)COc1cccc2[nH]ccc12 (stereo not shown) [Pindolol] = 4.88 µM

Field Ki (system: Cloned Human 5-HT1D-2 (Homo sapiens)) for entry O=C(c1ccc(F)cc1)C1CCN(CCn2c(=O)[nH]c3ccccc3c2=O)CC1 [Ketanserin] = 5.2 µM

---

Molecular target: UniProtKB P28222
Test: [3H]5-HT binding to cloned human 5-HT1D-2 (gene 11) in transfected cell membranes
Settings: read-out: Estimated equilibrium dissociation constants (Ki values); [3H]5-HT displacement; membranes of LM (tk−) cells stably transfected; Cheng-Prusoff
PROPERTY_LABEL: pKi
Just the number, please; pKi means minus log10 of the concentration in mol/L.

Examples from the recorded data:
Short answer for Cc1[nH]c2ccc(O)cc2c1CCN : pKi was 6.07

Short answer for CC[C@@H](CO)NC(=O)[C@@H]1C=C2c3cccc4c3c(cn4C)C[C@H]2N(C)C1 [Methysergide] : pKi was 7.60

Short answer for Nc1ccc(CCN2CCN(c3cccc(C(F)(F)F)c3)CC2)cc1 : pKi was 8.00

Short answer for Clc1cccc(N2CCNCC2)c1 : pKi was 6.44

Field: next molecule
Short answer for COc1cc(CC(C)N)c(OC)cc1I (centres unmarked) : pKi was 5.78

---

Target: Cloned Human 5-HT1D-2 (Homo sapiens)
Experiment: [3H]5-HT binding to cloned human 5-HT1D-2 (gene 11) in transfected cell membranes
Conditions: read-out: Estimated equilibrium dissociation constants (Ki values); [3H]5-HT displacement; membranes of LM (tk−) cells stably transfected; Cheng-Prusoff
Let's look at some molecules and their measured Ki.
Entry rule: numbers only, all in nM.

Examples from the recorded data:
Short answer for CSc1ccc2c(c1)C(N1CCN(C)CC1)Cc1ccccc1S2 (centres unmarked) [Methiothepin] : Ki was 25

Short answer for CCCN(CCC)CCc1c[nH]c2ccc(C(N)=O)cc12 : Ki was 42

Short answer for CN1C[C@H](CO)C=C2c3cccc4[nH]cc(c34)C[C@H]21 : Ki was 1.2

More entries:
Short answer for NCCc1c[nH]c2ccc(OCc3ccccc3)cc12 : Ki was 19

Short answer for c1ccc2c(N3CCNCC3)cccc2c1 : Ki was 12

---

Target: Cloned Canine 5-HT1D-1 (RDC4) (Canis lupus familiaris)
Sequence (P11614 whole entry): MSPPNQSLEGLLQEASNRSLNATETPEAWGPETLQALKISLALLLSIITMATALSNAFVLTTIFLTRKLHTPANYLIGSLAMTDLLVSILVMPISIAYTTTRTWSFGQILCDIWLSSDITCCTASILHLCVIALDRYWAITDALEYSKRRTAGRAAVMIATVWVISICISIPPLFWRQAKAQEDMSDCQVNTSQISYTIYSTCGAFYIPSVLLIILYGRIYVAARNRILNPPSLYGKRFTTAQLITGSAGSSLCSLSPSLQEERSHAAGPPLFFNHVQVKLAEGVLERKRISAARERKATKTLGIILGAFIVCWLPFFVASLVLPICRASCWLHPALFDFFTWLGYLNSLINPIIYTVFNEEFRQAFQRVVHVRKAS
Experiment: [3H]5-HT binding to cloned canine 5-HT1D-1 (RDC4) in transfected cell membranes
Settings: read-out: Estimated equilibrium dissociation constants (Ki values); [3H]5-HT displacement; membranes of LM (tk−) cells stably transfected; Cheng-Prusoff
We label by threshold. Values of Ki strictly beneath 300 nM are TRUE. Values of 300 nM and up are FALSE.

q: Item NCCc1c[nH]c2ccccc12 : Ki beneath 300 nM, strictly?
a: FALSE

q: Item COc1ccc2[nH]cc(CCN(C)C)c2c1 : Ki beneath 300 nM, strictly?
a: TRUE

q: Item NCCc1c[nH]c2ccc(O)cc12 [5-Hydrozytryptamine] : Ki beneath 300 nM, strictly?
a: TRUE

More entries:
q: Item COc1cc(CC(C)N)c(OC)cc1I (stereo not drawn) : Ki beneath 300 nM, strictly?
a: FALSE

q: Item FC(F)(F)c1cccc(N2CCNCC2)c1 : Ki beneath 300 nM, strictly?
a: TRUE

q: Item CC[C@@H](CO)NC(=O)[C@@H]1C=C2c3cccc4c3c(cn4C)C[C@H]2N(C)C1 [Methysergide] : Ki beneath 300 nM, strictly?
a: TRUE

q: Item Clc1cccc(N2CCNCC2)c1 : Ki beneath 300 nM, strictly?
a: FALSE

q: Item CCCN(CCC)C1CCc2cccc(O)c2C1 (stereo not drawn) : Ki beneath 300 nM, strictly?
a: TRUE

q: Item COC(=O)[C@@H]1[C@H]2C[C@H]3c4[nH]c5ccccc5c4CCN3C[C@@H]2CC[C@@H]1O : Ki beneath 300 nM, strictly?
a: TRUE

q: Item NCCc1c[nH]c2ccc(C(N)=O)cc12 : Ki beneath 300 nM, strictly?
a: TRUE

q: Item Nc1ccc(CCN2CCN(c3cccc(C(F)(F)F)c3)CC2)cc1 : Ki beneath 300 nM, strictly?
a: TRUE

q: Item Cc1[nH]c2ccc(O)cc2c1CCN : Ki beneath 300 nM, strictly?
a: FALSE
